target_of_assay: TJP2_1, Q9UDY2
Sequence (Q9UDY2 24-128): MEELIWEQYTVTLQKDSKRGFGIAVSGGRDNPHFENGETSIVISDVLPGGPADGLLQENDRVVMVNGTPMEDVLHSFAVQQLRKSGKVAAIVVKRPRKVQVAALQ
experimental_details: holdup assay
Set-up: key: below the threshold = too weak to quantify, mostly under pKd 3.1 to 4
particulars: plain residues with an end cap or a label only (N-terminal biotin on a linker: ado-ado)
Each item that follows carries a reported pKd.
parameter: pKd

>>> print(df.to_string())
                         binder  value
0    VLYPREGTEV [FOXI1, Q12951]      4
1  GIKKITSTAL [RPS6KA3, P51812]   3.89
